B1: TPR 5TU (parent)
chain: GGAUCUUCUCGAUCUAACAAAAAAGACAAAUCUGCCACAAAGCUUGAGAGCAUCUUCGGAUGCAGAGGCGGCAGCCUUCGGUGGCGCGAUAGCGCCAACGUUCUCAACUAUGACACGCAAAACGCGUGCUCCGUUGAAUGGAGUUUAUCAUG

# Variants of: B1
# Assay method text: polymerase ribozyme fitness, log enrichment relative to wild type (log ratio); higher = more active; in vitro selection for triplet polymerase activity
Variants at the floor of the assay were thinned out.
Give measured polymerase ribozyme fitness (log ratio) for each item. Keep answers brief.
The answer should be written as a number, with no unit following it.

Exam item: Sample A60G U139C G141C U144A — what was its polymerase ribozyme fitness (log ratio)?
Marked response: -4.04

Exam item: Sample A115G G141A — what was its polymerase ribozyme fitness (log ratio)?
Marked response: -0.426

Exam item: Sample U31A C85A — what was its polymerase ribozyme fitness (log ratio)?
Marked response: -0.724

Exam item: Sample U53A G58C C96U U135G — what was its polymerase ribozyme fitness (log ratio)?
Marked response: -3.98

Exam item: Sample U56A C96U C116U G143A — what was its polymerase ribozyme fitness (log ratio)?
Marked response: -3.36

Exam item: Sample A121U C132U U146A — what was its polymerase ribozyme fitness (log ratio)?
Marked response: -0.968

Exam item: Sample U4G A106G — what was its polymerase ribozyme fitness (log ratio)?
Marked response: -0.112

Exam item: Sample A73U C93U — what was its polymerase ribozyme fitness (log ratio)?
Marked response: -1.62

Exam item: Sample A20G A21C G84U C95G G117U — what was its polymerase ribozyme fitness (log ratio)?
Marked response: -0.439

Exam item: Sample C99G G124A G141U — what was its polymerase ribozyme fitness (log ratio)?
Marked response: -0.199

// provenance: the RNAGym collection of RNA variant scans (doi:10.1073/pnas.2313332121)
